Taken from patent US11723890B2.

- Assay Remarks: Example 3: plasma pharmacokinetics of two sequential doses
- Type: in vivo, human
- Condition Parameters: male, human, po, 2400 mg, healthy males, 2400 mg oral, Day 1, N 11, read-out: AUC(0-48), Mean

Compound String | AUC / µg·h/mL
CC(C)(C[C@H](N)C(=O)O)C(F)F | 442

----------
- Assay Remarks: Example 3: plasma pharmacokinetics of two sequential doses
- Type: in vivo, human
- Condition Parameters: male, human, po, 2400 mg, healthy males, 2400 mg oral, Day 1, N 11, read-out: AUC(0-48), Median
Property Label: AUC

Compound String | Recorded Result
CC(C)(C[C@H](N)C(=O)O)C(F)F | 453 µg·h/mL
